The entries below pair compounds with Ki values for Prostaglandin E2 receptor EP3 subtype (Homo sapiens, UniProt P43115), as found in several publications.
# System Name: Prostaglandin E2 receptor EP3 subtype (Homo sapiens, UniProt P43115)
# Sequence (P43115 whole entry): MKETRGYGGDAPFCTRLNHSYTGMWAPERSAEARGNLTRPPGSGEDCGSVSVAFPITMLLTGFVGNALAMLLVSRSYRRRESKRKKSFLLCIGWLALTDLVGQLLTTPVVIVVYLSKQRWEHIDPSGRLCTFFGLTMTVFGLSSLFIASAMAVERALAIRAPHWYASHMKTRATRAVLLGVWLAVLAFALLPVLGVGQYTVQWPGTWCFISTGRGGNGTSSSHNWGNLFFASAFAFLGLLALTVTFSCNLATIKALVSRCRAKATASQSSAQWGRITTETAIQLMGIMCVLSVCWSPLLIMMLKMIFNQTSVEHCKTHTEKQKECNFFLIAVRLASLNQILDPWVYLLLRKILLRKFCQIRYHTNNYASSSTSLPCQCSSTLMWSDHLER

# Smiles Record, Ki
data = [
    ("C[C@@H](NC(=O)c1c(Cl)sc(Cl)c1Cc1cccc(Cl)c1)c1ccc(C(=O)O)cc1", "> 0.224 µM"),
    ("C[C@H](NC(=O)c1cccc2ccn(Cc3ccc(C(F)(F)F)cc3)c12)c1ccc(C(=O)O)cc1", "≥ 0.58 µM"),
    ("Cn1c(C(=O)NC2(c3ccc(C(=O)O)cc3)CC2)c(Nc2cccc(C(F)(F)F)c2)c2ccccc21", "> 6.4 µM"),
    ("CCCC1([C@@H](O)C/C=C/[C@H]2[C@H](O)CC(=O)[C@@H]2CCCCCCC(=O)O)CCC1", "> 10 µM"),
    ("O=C(O)COc1cccc2c1CCC[C@H]2N1CCC[C@@H]1c1nc(-c2ccccc2)c(-c2ccccc2)o1", "> 10 µM"),
    ("COc1ccc(-c2cc(C(F)(F)F)nn2-c2nc(C(=O)O)cs2)cc1", "> 5 µM"),
    ("C[C@H](NC(=O)c1cc(Cl)cc2ccn(Cc3ccc(C(F)(F)F)cc3)c12)c1ccc(C(=O)O)cc1", "≥ 0.1 µM"),
]
